Biological target: AT1R (Rattus norvegicus)
Construct: expressed in transfected cells; host or cells: HEK 293T
Assay: PM–ligand BRET equilibrium binding, untagged AT1R with GLuc–PM
Settings: 1 μM TAMRA–AngII, two site competitive fit, GLuc–PM; read-out: IC50_Hi
reported endpoint: IC50 (nM)
Give bare numbers, in nM.

Requested read-out: IC50. Entry: CCOc1nc2cccc(C(=O)O)c2n1Cc1ccc(-c2ccccc2-c2nnn[nH]2)cc1
1.24

###

Target: ɑ1AAR (Homo sapiens, UniProt P35348)
Sequence (P35348 whole entry): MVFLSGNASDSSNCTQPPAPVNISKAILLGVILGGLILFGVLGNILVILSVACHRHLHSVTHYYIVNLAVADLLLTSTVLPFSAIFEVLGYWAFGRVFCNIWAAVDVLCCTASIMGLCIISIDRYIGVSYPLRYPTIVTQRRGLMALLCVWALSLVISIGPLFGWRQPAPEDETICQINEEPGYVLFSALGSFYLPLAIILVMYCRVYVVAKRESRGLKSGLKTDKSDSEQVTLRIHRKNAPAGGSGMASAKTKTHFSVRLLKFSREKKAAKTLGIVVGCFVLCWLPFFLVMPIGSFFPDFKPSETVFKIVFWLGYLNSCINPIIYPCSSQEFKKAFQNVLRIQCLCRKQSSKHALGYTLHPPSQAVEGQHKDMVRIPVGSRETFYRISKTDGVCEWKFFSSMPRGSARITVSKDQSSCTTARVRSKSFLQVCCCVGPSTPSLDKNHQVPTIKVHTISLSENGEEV
Experiment: PM–ligand BRET equilibrium binding, α1AAR with GLuc–PM
Parameters: expressed in transfected cells; host or cells: HEK 293T
Details: 375 nM BODIPY FL–prazosin, one site competitive fit, PM–ligand BRET
reported endpoint: Ki (nM)
Give bare numbers, in nM.

O=C(CN1CCC(n2nnc3cc(F)ccc32)CC1)N1CCc2ccccc2C1 [BCC0061678] | 180
O=C(NCCN1CCN(c2ccccc2)CC1)Nc1ccc2c(c1)OCCO2 [BCC0079473] | 122
O=C(/C=C/c1nc2ccccc2o1)N1CCC(c2c[nH]c3ccccc23)CC1 [BCC0010913] | 1840

Please find the next molecule below.
Requested read-out: Ki. Entry: COc1ccc(-c2nnc(SCC(=O)Nc3cc(C)cc(C)c3)[nH]2)cc1 [BCC0072526]
86.1

###

Molecular target: AT1R (Rattus norvegicus, UniProt P25095)
Construct: expressed in transfected cells; host or cells: HEK 293T
Sequence (P25095 1-359): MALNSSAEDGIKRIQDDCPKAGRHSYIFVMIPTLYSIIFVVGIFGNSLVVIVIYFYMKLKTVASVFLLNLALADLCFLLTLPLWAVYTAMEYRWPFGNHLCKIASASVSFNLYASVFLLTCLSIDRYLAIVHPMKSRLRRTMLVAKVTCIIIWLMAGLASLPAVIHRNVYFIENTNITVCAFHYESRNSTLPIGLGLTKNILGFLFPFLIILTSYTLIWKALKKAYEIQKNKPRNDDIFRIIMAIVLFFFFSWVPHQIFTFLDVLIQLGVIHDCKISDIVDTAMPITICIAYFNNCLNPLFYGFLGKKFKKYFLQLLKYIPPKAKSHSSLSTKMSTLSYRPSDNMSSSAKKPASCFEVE
Assay: PM–ligand BRET equilibrium binding, untagged AT1R with NanoLuc–PM
Conditions: 1 μM TAMRA–AngII, two site competitive fit, read-out: IC50_Lo
reported endpoint: IC50 (nM)
Numbers only, in nM.

Requested read-out: IC50. Entry: CCOc1nc2cccc(C(=O)O)c2n1Cc1ccc(-c2ccccc2-c2nnn[nH]2)cc1 [candesartan]
19.6

###

Target: AT1R (Rattus norvegicus)
Construct: expressed in transfected cells; host or cells: HEK 293T
Sequence (P25095 1-359): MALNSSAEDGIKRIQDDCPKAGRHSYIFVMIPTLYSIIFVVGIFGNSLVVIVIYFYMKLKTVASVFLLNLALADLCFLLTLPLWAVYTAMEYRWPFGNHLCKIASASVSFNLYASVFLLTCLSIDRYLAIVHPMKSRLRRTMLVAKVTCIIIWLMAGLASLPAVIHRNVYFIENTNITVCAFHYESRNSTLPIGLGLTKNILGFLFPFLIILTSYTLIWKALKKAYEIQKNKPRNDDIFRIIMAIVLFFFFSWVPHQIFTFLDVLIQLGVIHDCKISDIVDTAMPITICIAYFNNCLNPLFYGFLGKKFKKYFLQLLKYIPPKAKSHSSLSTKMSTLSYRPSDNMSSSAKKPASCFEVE
Test: PM–ligand BRET equilibrium binding, untagged AT1R with GLuc–PM
Conditions: 1 μM TAMRA–AngII, two site competitive fit, GLuc–PM; read-out: IC50_Lo
reported endpoint: pIC50
Numbers only, as −log10 of the molar value.

Requested read-out: pIC50. Entry: CCOc1nc2cccc(C(=O)O)c2n1Cc1ccc(-c2ccccc2-c2nnn[nH]2)cc1 [candesartan]
3.61

###

Target: GLuc–ɑ1AAR (Homo sapiens)
Construct: Gaussia luciferase signal peptide (N); […]; expressed in transfected cells; host or cells: HEK 293T
Sequence (P35348 whole entry): as the sequence (P35348 whole entry) above
Assay: Receptor–ligand BRET equilibrium binding, GLuc–α1AAR in HEK 293T cells
reported endpoint: Ki (nM)
Give bare numbers, in nM.

Requested read-out: Ki. Entry: COc1ccccc1OCCNCC(O)COc1cccc2[nH]c3ccccc3c12 (stereo not shown) [carvedilol, reference compound]
62.7

###

Target: GLuc–AT1R (Rattus norvegicus, UniProt P25095)
Construct: Gaussia luciferase signal peptide (N); expressed in transfected cells; host or cells: HEK 293T
Assay: Receptor–ligand BRET equilibrium binding, GLuc–AT1R in HEK 293T cells
Details: 1 μM TAMRA–AngII, two site competitive fit, 2 h room temperature; read-out: IC50_Hi
reported endpoint: IC50 (nM)
Give bare numbers, in nM.

Requested read-out: IC50. Entry: CCOc1nc2cccc(C(=O)O)c2n1Cc1ccc(-c2ccccc2-c2nnn[nH]2)cc1
0.207

###

Target: AT1R (Rattus norvegicus, UniProt P25095)
Construct: expressed in transfected cells; host or cells: HEK 293T
Test: PM–ligand BRET equilibrium binding, untagged AT1R with NanoLuc–PM
Settings: 1 μM TAMRA–AngII, two site competitive fit, read-out: IC50_Hi
reported endpoint: pIC50
One number for each entry, as −log10 of the molar value.

Requested read-out: pIC50. Entry: CCOc1nc2cccc(C(=O)O)c2n1Cc1ccc(-c2ccccc2-c2nnn[nH]2)cc1
8.89

###

Molecular target: NanoLuc–AT1R (Rattus norvegicus, UniProt P25095)
Construct: secretion signal peptide of interleukin-6 (N); expressed in transfected cells; host or cells: HEK 293T
Sequence (P25095 1-359): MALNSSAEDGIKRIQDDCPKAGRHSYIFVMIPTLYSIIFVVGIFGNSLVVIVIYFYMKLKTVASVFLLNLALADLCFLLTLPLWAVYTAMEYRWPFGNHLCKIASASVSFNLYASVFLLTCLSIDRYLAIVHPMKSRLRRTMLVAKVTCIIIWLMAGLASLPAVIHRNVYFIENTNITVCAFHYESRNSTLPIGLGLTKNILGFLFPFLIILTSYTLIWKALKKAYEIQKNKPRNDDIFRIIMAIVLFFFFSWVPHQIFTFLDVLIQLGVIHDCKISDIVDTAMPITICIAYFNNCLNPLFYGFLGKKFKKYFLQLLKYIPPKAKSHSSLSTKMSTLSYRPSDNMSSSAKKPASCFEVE
Assay: Receptor–ligand BRET equilibrium binding, NanoLuc–AT1R in HEK 293T cells
Conditions: 1 μM TAMRA–AngII, two site competitive fit, 2 h room temperature; read-out: IC50_Lo
reported endpoint: IC50 (nM)
One number for each entry, in nM.

Requested read-out: IC50. Entry: CCOc1nc2cccc(C(=O)O)c2n1Cc1ccc(-c2ccccc2-c2nnn[nH]2)cc1
1

###

Target: ɑ1AAR (Homo sapiens, UniProt P35348)
Test: α1AAR ligand screening, plasma membrane–ligand BRET (α1AAR with GLuc–PM)
Details: 20 min, read-out: plasma membrane-ligand BRET decrease (%) Replicate2
For each entry below, report its inhibition at 10 µM value.
One number for each entry, in %.

Here's what some known entries look like.
C=CCOc1ccc2[nH]c(C)c(C(=O)OCC)c2c1 | 1.12
CS(=O)(=O)Nc1c(O)ccc2c1CCCC2C1=NCCN1 (centres unmarked) [Compound A61603, A61603, reference compound] | -76
CC(NC(=O)C1CC1C)c1ccc(-n2cncn2)cc1 (centres unmarked) | -0.3

Batch request: inhibition at 10 µM for each of the following molecules.
1. CC(C)(C)Nc1nnc(Sc2ncnc3sccc23)s1
2. O=C(CN1CCN(CC(=O)Nc2cccc([N+](=O)[O-])c2)CC1)Nc1cccc([N+](=O)[O-])c1
3. O=C(c1noc2c1COc1ccccc1-2)N1CCN(c2cccc(Cl)c2)CC1
4. O=C(CN1CCC(N2CCCCC2)CC1)N1CCC2(CC1)OCCO2
5. CN(C)CCCNCc1ccc2c(c1)OCO2

-0.3
3.14
-2.43
-1.52
-0.43

Batch request: inhibition at 10 µM for each of the following molecules.
1. CN1CCN(C(=O)c2ccc(-n3nc(C(F)(F)F)c4c3CCCC4)cc2)CC1
2. Cc1ccnc(SCc2nc3ccccn3c2Br)n1
3. CCCN1CCC(N2CCN(S(=O)(=O)c3ccc(C)cc3)CC2)CC1
4. O=C(Cn1nnc2ccccc21)N1CCC(n2c(=O)oc3ccccc32)CC1
5. COc1ccc(C(=O)NCCN2CCN(C(=O)c3ccc(OC)c(OC)c3)CC2)cc1OC
6. FC(F)(F)c1cccc(OCCn2cncn2)c1
7. Cc1cc(C)c(CNC(=O)c2ccc(NC(=O)C3CC3)cc2)c(=O)[nH]1
8. COc1ccccc1NS(=O)(=O)c1ccc2c(c1)SC(C)C(=O)N2 (centres unmarked)

4.59
-12
2.58
-10.8
3.82
4.76
-9.71
-2.12

Batch request: inhibition at 10 µM for each of the following molecules.
1. CCC(=O)c1ccc(OCCN2CCOCC2)cc1
2. Cc1cc(S(=O)(=O)NCc2ccccc2)ccc1OCC(=O)N1CCN(C)CC1
3. Cc1cc(C(=O)NCc2ccc(F)cc2)on1
4. CSc1ccc(CNC2CN3CCC2CC3)cc1 (centres unmarked)

-1.63
-3.63
-13.9
2.8
